- study_system: T1, recombinant human soluble gpNMB (recombinant human gpNMB-FLAG-His) (human, UniProt Q14956 23-498)
- T1 sequence: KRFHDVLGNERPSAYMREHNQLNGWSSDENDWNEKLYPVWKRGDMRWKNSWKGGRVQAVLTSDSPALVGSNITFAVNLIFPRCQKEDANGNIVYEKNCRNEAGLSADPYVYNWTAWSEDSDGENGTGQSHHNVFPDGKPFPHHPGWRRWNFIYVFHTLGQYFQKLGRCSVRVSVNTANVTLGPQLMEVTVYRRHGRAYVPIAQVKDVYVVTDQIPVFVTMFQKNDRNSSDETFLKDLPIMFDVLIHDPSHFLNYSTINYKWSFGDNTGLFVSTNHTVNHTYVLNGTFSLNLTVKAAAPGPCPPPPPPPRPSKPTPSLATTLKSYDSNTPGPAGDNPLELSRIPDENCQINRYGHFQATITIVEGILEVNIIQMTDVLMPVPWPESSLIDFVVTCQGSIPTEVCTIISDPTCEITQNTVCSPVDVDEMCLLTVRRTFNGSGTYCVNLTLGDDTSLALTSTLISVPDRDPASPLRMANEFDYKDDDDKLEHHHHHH
- method_summary: SPR, antibody 100 nM over captured gpNMB-FLAG-His, 25C
measure_name: koff
Form entry: enter the amount, then its unit.

binder	koff
GPN05-1 (antibody, V domains shown, monoclonal with mouse IgG constant regions) VH: QVQLQQSGAELVRPGTSVKVSCKASGYAFSNHLIEWVKQRPGQGLEWIGVINPGSGGTNYIEKFKGKATLTADKSSSTAYMQLSSLTSDDSAVYFCARGANWDVGFAYWGQGTLVTVSA VL: EIQMTQSPSSMSASLGDRITITCQATQDIVKNLNWYQQKPGKPPSFLIYYATELAEGVPSRFSGSGSGSDFSLTISNLESEDFADYYCLQFHEFPRTFGGGTKLEIK	0.00016 s⁻¹

Moving on to the next binder.
Name the reported koff value associated with the binder GPN18-2 (antibody, V domains shown, monoclonal with mouse IgG constant regions) VH: QVTLKESGPGILQPSQTLSLTCSFSGFSLSTSVMGVGWIRQPSGKGLEWLADIWWDDDKDYNPSLKSRLTISKDTSKNQVFLKIASVDTADTATYYCARTYYSNYEYYGMDYWGQGTSVTVSS VL: DVLMTQTPLSLPVSLGDQASISCRSSQTIILSNGNTYLEWYLQKPGQSPKLLIYKVSNRFSGVPDRFSGSGSGTDFTLKISRVEAEDLGVYYCFQGSHVPFTFGSGTKLEIK
6.8e-05 s⁻¹
